assay details: ATG_M_61_CIS: Attagene CIS-FACTORIAL HepG2 Assay for M61 Transcription Factor (Internal Marker) (AID 2282937)
measurement parameters: HepG2 Attagene CIS-FACTORIAL M61 internal marker reporter; actives raise or lower the signal
Active and inactive are the calls of the source. How the source made its calls: active means hit-call score of the fitted dose curve at least 0.9, where 1 is the maximum; inactive means score below 0.9.
readout label: outcome

Please review the following examples before continuing.
| compound | outcome |
| --- | --- |
| C=CC(=O)NC(C)(C)CC(C)=O | inactive |
| C1CN2CCN1CC2 | inactive |
| CCOC(=O)OC1=C(c2cc(C)ccc2C)C(=O)NC12CCC(OC)CC2 (centres undefined) | inactive |
| CCNc1nc(NCC)nc(SC)n1 | inactive |

Enquiry: Please report the recorded outcome for `C[C@]12CC[C@@H](O)C[C@@H]1CC[C@@H]1[C@@H]2CC[C@]2(C)C(=O)CC[C@@H]12` .
Return: inactive

Enquiry: Queued: `COc1ccc(N)cc1`
Return: inactive

Enquiry: Queued: `c1csc(-c2ccc(-c3cccs3)s2)c1`
Return: inactive

Enquiry: Queued: `O=C/C(Cl)=C(/Cl)C(=O)O`
Return: inactive

Enquiry: Queued: `Cc1cc(Cl)ccc1O`
Return: inactive

Enquiry: Queued: `N#Cc1ccc(Cl)cc1`
Return: inactive

* * *

assay details: CCTE_Shafer_MEA_acute_burst_percentage_mean: CCTE's Neural Acute Assay for Percentage of Spikes in a Burst, Shafer Lab (AID 2284017)
Activity calls are given as the source filed them. The calls were made as follows: active = hit-call score of the fitted dose curve at least 0.9, where 1 is the maximum; inactive = score below 0.9.
Write down the outcome that applies. Available outcomes: 1 (yes) (active), 0 (no) (inactive)

Below, 3 compounds whose answers are already recorded.
| molecular string | label class |
| --- | --- |
| CS(=O)(=O)c1ccc(C(=O)C2C(=O)CCCC2=O)c(Cl)c1COCC(F)(F)F | 0 (no) |
| O=C(Cc1ccccc1)OCCc1ccccc1 | 0 (no) |
| CC1(C)[C@H](C(=O)O[C@H](C#N)c2cccc(Oc3ccccc3)c2)[C@@H]1/C=C(\Cl)C(F)(F)F | 1 (yes) |

Enquiry: What was the test verdict on `CC(C)(C)c1ccccc1O` ?
Return: 1 (yes)

Enquiry: Queued: `Clc1cccc(Cl)c1Cl`
Return: 0 (no)

Enquiry: Queued: `Oc1ccc(Cc2ccc(O)cc2)cc1`
Return: 0 (no)

* * *

Read-out: Human Leukocyte Antigen - DR isotype (HLADR), HLA-DRA (gene 3122)
assay details: BSK_3C_HLADR: BioMAP Diversity Plus: 3C Assay for Human Leukocyte Antigen - DR isotype (HLADR) Biomarker Activity (AID 2283019);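 on outcome: ELISA of cell-surface HLA-DR on HUVEC 24 h after dosing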
measurement parameters: primary human endothelial cells (HUVEC); actives raise or lower the signal
Calls of active or inactive are those of the source. The calls were made as follows: active = hit-call score of the fitted dose curve at least 0.9, where 1 is the maximum; inactive = score below 0.9.
Write down the outcome that applies. Available outcomes: active, inactive

Below, 5 compounds whose answers are already recorded.
| compound | label class |
| --- | --- |
| Cc1ccc2nc3sc(=O)sc3nc2c1 | active |
| OCCCCO | inactive |
| C[C@]12CC[C@@H](O)C[C@@H]1CC[C@@H]1[C@@H]2CC[C@]2(C)C(=O)CC[C@@H]12 | inactive |
| OC(Cc1ccccc1Cl)(Cn1cncn1)C1(Cl)CC1 (centres undefined) | inactive |
| CC(C)N(C(=O)CCl)c1ccccc1 | active |

Enquiry: What was the test verdict on `CCOC(=O)CC(=O)CCl` ?
Return: active

Enquiry: Queued: `CCOC(=O)CCN(SN(C)C(=O)Oc1cccc2c1OC(C)(C)C2)C(C)C`
Return: active

Enquiry: Queued: `Clc1cccc(Cl)c1`
Return: inactive

Enquiry: Queued: `c1ccc(-c2cccc(-c3ccccc3)c2)cc1`
Return: active

Enquiry: Queued: N#CCCC(Br)(C#N)CBr (centres undefined)
Return: active

Enquiry: Queued: `Oc1cccc(-c2ccccc2)c1`
Return: active

Enquiry: Queued: `Cc1cc(C(C)(C)c2ccc(O)c(C)c2)ccc1O`
Return: active

Enquiry: Queued: CCOC(=O)C(SP(=S)(OC)OC)c1ccccc1 (centres undefined)
Return: active

Enquiry: Queued: `NC(=O)CCl`
Return: inactive
